tested on: SNB-19 CNS; assay: NCI tumour cell line growth inhibition, 48 h; in the data active means GI50 below about 0.43 µM; inactive means the rest
Possible outcomes: active, inactive

{"Molecule": "c1ccc2nc(Cn3c[n+](Cc4ccc5ccccc5n4)c4ccccc43)ccc2c1", "Experimental target": "SNB-19 CNS", "Group": "inactive"}
{"Molecule": "C=C(C)[C@@H]1CC=C(CO)CC1", "Experimental target": "SNB-19 CNS", "Group": "inactive"}
{"Molecule": "CCc1c(C)[nH]c(/C=C2\\N=C(c3ccc[nH]3)C=C2OC)c1C", "Experimental target": "SNB-19 CNS", "Group": "inactive"}
{"Molecule": "COc1cc2c(cc1OC)-c1ccc3cc4c(cc3c1N(CCN1CCCC1)C2)OCO4", "Experimental target": "SNB-19 CNS", "Group": "inactive"}
{"Molecule": "C=C(C)[C@@H]1CC[C@]2(C(=O)NCCCN)CC[C@]3(C)[C@H](CC[C@@H]4[C@@]5(C)CC[C@H](O)C(C)(C)[C@@H]5CC[C@]43C)[C@@H]12", "Experimental target": "SNB-19 CNS", "Group": "inactive"}
{"Molecule": "OCC1OC(n2ccc3c2ncn2ncnc32)C(O)C1O (configuration not stated)", "Experimental target": "SNB-19 CNS", "Group": "inactive"}
{"Molecule": "Fc1ccc(-c2nc3n(c2-c2ccncc2)CCS3)cc1", "Experimental target": "SNB-19 CNS", "Group": "inactive"}
{"Molecule": "COc1cccc(OC(=O)c2ccccc2Nc2ccnc(C(F)(F)F)c2)c1", "Experimental target": "SNB-19 CNS", "Group": "inactive"}
{"Molecule": "O=C(CCN1CCCC1)Nc1ccc2c(NCc3ccc(F)cc3)c3ccccc3nc2c1", "Experimental target": "SNB-19 CNS", "Group": "inactive"}
{"Molecule": "N#CC(C#N)=Cc1ccc(-c2ccc(-c3nc4ccccc4s3)cc2)o1", "Experimental target": "SNB-19 CNS", "Group": "inactive"}
{"Molecule": "COc1cc2nc(Cl)nc(Nc3cccc(C(=O)/C=C/c4ccccc4)c3)c2cc1OC", "Experimental target": "SNB-19 CNS", "Group": "inactive"}
{"Molecule": "COc1cccc(C2=C(c3cn(C)c4ccccc34)C(=O)NC2=O)c1", "Experimental target": "SNB-19 CNS", "Group": "inactive"}
{"Molecule": "COc1cc(Cn2cc3c(c2)-c2oncc2CC3)cc(OC)c1OC", "Experimental target": "SNB-19 CNS", "Group": "active"}
{"Molecule": "CCN(CC)CCOc1ccc(C(=C(C)c2ccc(Cl)cc2)c2ccc(OCCN(CC)CC)cc2)cc1", "Experimental target": "SNB-19 CNS", "Group": "inactive"}
{"Molecule": "CC(=O)[O][Pb]([O]C(C)=O)([c]1ccccc1)[c]1ccccc1", "Experimental target": "SNB-19 CNS", "Group": "inactive"}
{"Molecule": "c1ccc2[nH]c(-c3ccc(N4CCN(c5ccc(-c6nc7ccccc7[nH]6)cc5)CC4)cc3)nc2c1", "Experimental target": "SNB-19 CNS", "Group": "inactive"}
{"Molecule": "Fc1ccc2[nH]cc(Cc3c[nH]c4ccc(F)cc34)c2c1", "Experimental target": "SNB-19 CNS", "Group": "inactive"}
{"Molecule": "N#Cc1ncc(/N=C/c2ccc(N(CCCl)CCCl)cc2)s1", "Experimental target": "SNB-19 CNS", "Group": "inactive"}
{"Molecule": "CC1=C(C(=O)OCc2ccccc2)C(c2ccc3c(c2)OCO3)n2c(nc3ccccc32)N1 (configuration not stated)", "Experimental target": "SNB-19 CNS", "Group": "inactive"}
{"Molecule": "O=S(=O)(c1ccc(NC(=S)NCc2cccnc2)cc1)N1CCCCC1", "Experimental target": "SNB-19 CNS", "Group": "inactive"}
{"Molecule": "Nc1ncnc2sc(=S)c3c(c12)CCC3", "Experimental target": "SNB-19 CNS", "Group": "inactive"}
{"Molecule": "CCC[CH2][Sn]([CH2]CCC)([O]C(C)=O)[O]C(C)=O", "Experimental target": "SNB-19 CNS", "Group": "inactive"}
